tested on: Mycobacterium tuberculosis; assay: Antituberculosis activity against Mycobacterium tuberculosis H37Rv under aerobic conditions by microplate alamar blue assay; type: functional
property_measured: MIC
Report the figure along with its unit, number first.

Would you please look over these solved cases?
compound	result_value
O=[N+]([O-])c1cn2c(n1)OC[C@@H](OCC#Cc1ccc(-c3ccc(C(F)(F)F)cc3)nc1)C2	0.07 µM
O=[N+]([O-])c1cn2c(n1)OC[C@@H](OCC#Cc1cccc(-c3ccc(F)cc3)c1)C2	0.04 µM
O=[N+]([O-])c1cn2c(n1)OC[C@@H](OCCOc1ccc(-c3ccc(C(F)(F)F)cc3)cn1)C2	0.02 µM
O=[N+]([O-])c1cn2c(n1)OC[C@@H](Oc1ccc(-c3ccc(C(F)(F)F)cc3)nc1)C2	0.78 µM
O=[N+]([O-])c1cn2c(n1)OC[C@@H](OCCOc1ccc(-c3ccc(F)cc3)cc1)C2	0.04 µM
O=[N+]([O-])c1cn2c(n1)OC[C@@H](OCCCc1ccc(-c3ccc(F)cc3)cc1)C2	0.045 µM
O=[N+]([O-])c1cn2c(n1)OC[C@@H](OCCCC#Cc1ccc(-c3ccc(OC(F)F)cc3)cc1)C2	0.035 µM
O=[N+]([O-])c1cn2c(n1)OC[C@@H](Oc1cc(-c3ccc(C(F)(F)F)cc3)ncn1)C2	0.8 µM

-- ask Look up MIC: O=[N+]([O-])c1cn2c(n1)OC[C@@H](Oc1ccnc(-c3ccc(F)cc3)c1)C2
-- reply 0.67 µM

-- ask Look up MIC: O=[N+]([O-])c1cn2c(n1)OC[C@@H](Oc1ccc(-c3ccc(C(F)(F)F)cc3)cn1)C2
-- reply 0.1 µM

-- ask Look up MIC: O=[N+]([O-])c1cn2c(n1)OC[C@@H](OCCCC#Cc1ccc(OC(F)(F)F)cc1)C2
-- reply 0.05 µM

-- ask Look up MIC: O=[N+]([O-])c1cn2c(n1)OC[C@@H](Oc1cc(-c3ccc(F)cc3)ncn1)C2
-- reply 0.99 µM

-- ask Look up MIC: O=[N+]([O-])c1cn2c(n1)OC[C@@H](OCC#Cc1ccc(C(F)(F)F)nc1)C2
-- reply 0.18 µM

-- ask Look up MIC: O=[N+]([O-])c1cn2c(n1)OC[C@@H](OCCCc1ccc(-c3ccc(C(F)(F)F)nc3)cc1)C2
-- reply 0.07 µM

-- ask Look up MIC: O=[N+]([O-])c1cn2c(n1)OC[C@@H](Oc1ccc(-c3ccc(C(F)(F)F)nc3)nc1)C2
-- reply 0.45 µM

====

tested on: Mycobacterium tuberculosis; test: Antituberculosis activity against Mycobacterium tuberculosis H37Rv under aerobic conditions by microplate alamar blue assay; format: functional
property_measured: MIC (µM)
Record the value in µM, omitting the unit from your answer.

molecule	unit_spec	result_value
O=[N+]([O-])c1cn2c(n1)OC[C@@H](OCCCC#Cc1ccc(C(F)(F)F)nc1)C2	µM	0.12
O=[N+]([O-])c1cn2c(n1)OC[C@@H](OCCOc1ccc(-c3ccc(C(F)(F)F)nc3)cc1)C2	µM	0.025
O=[N+]([O-])c1cn2c(n1)OC[C@@H](OCC#Cc1ccc(-c3ccc(C(F)(F)F)nc3)nc1)C2	µM	0.12
O=[N+]([O-])c1cn2c(n1)OC[C@@H](Oc1cc(-c3ccc(F)cc3)ccn1)C2	µM	5.2
O=[N+]([O-])c1cn2c(n1)OC[C@@H](OCCOc1ncc(-c3ccc(OC(F)(F)F)cc3)cn1)C2	µM	0.13
O=[N+]([O-])c1cn2c(n1)OC[C@@H](OC/C=C/c1ccc(OCc3ccccc3)cc1)C2	µM	0.16
O=[N+]([O-])c1cn2c(n1)OC[C@@H](OC/C=C/c1ccc(-c3ccc(OC(F)F)cc3)cc1)C2	µM	0.08
O=[N+]([O-])c1cn2c(n1)OC[C@@H](Oc1ccc(-c3ccc(OC(F)(F)F)cc3)cc1)C2	µM	0.09

-- ask Look up MIC: O=[N+]([O-])c1cn2c(n1)OC[C@@H](OCC#Cc1ccc(-c3ccc(OC(F)F)cc3)cc1)C2
-- reply 0.14

-- ask Look up MIC: O=[N+]([O-])c1cn2c(n1)OC[C@@H](OCCOc1ccc(-c3ccc(C(F)(F)F)cc3)cc1)C2
-- reply 0.04
